target: recombinant rat MASP2 active protease (amino acids 296-685, C-terminal His Tag) (rat, UniProt Q9JJS8 296-685); assay: cell-based or functional assay
Sequence (Q9JJS8 other isoform, or with tags, fused parts or gaps limits assumed): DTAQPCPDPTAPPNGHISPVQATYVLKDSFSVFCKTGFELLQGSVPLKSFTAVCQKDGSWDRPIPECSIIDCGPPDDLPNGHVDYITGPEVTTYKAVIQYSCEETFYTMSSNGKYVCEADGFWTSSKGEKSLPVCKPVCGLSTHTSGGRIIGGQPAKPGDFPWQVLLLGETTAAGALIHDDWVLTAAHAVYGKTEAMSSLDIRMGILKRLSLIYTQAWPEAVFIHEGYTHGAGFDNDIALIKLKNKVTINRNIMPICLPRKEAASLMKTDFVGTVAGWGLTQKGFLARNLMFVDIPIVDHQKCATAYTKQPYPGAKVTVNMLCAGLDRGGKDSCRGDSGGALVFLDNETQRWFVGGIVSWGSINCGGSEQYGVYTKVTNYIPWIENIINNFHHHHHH
Bridge positions count the residues as written; N and C are the ends. Square brackets hold non-standard residues; d marks the D form. Ends that are not written are not given here. Oic = O=C(O)[C@@H]1C[C@@H]2CCCC[C@@H]2N1; PEG8 = NCCOCCOCCOCCOCCOCCOCCOCCOCCC(=O)O; Pen = CC(C)(S)[C@H](N)C(=O)O; Sar = CNCC(=O)O
MEASURED PROPERTY: rat MASP2 IC50 (nM)
Write the number in nM without appending the unit.

Per the records, this binder ( [Sar]ICSRSLP[Oic]I[Pen]IP[PEG8]-NH2 (disulfide 3-11; N-terminus assumed; SMILES CC[C@H](C)[C@H](NC(=O)CNC)C(=O)N[C@H]1CSSC(C)(C)[C@@H](C(=O)N[C@H](C(=O)N2CCC[C@H]2C(=O)NCCOCCOCCOCCOCCOCCOCCOCCOCCC(N)=O)[C@@H](C)CC)NC(=O)[C@H]([C@@H](C)CC)NC(=O)[C@@H]2C[C@@H]3CCCC[C@@H]3N2C(=O)[C@@H]2CCCN2C(=O)[C@H](CC(C)C)NC(=O)[C@H](CO)NC(=O)[C@H](CCCNC(=N)N)NC(=O)[C@H](CO)NC1=O) [Example 168: ((N-Me)G)-IC+SRSLP-(Oic)-I-(Pen)+IP-(PEG8(28 atoms))-NH2] ) has rat MASP2 IC50 equal to 53

Source listed as patent US20210246166A1.
